biological target: Human HDAC1 (Homo sapiens); construct: Full length with C-terminal GST tag, MW=79.9 kDa; GST (C); purchased BioMol SE-456; host or cells: baculovirus / Sf9 cells; experiment: In vitro HDAC1 inhibition, fluorogenic peptide substrate; type: biochemical; settings: 4 h preincubation; read-out: IC50 (μM) HDAC-1
Sequence (Q13547 whole entry): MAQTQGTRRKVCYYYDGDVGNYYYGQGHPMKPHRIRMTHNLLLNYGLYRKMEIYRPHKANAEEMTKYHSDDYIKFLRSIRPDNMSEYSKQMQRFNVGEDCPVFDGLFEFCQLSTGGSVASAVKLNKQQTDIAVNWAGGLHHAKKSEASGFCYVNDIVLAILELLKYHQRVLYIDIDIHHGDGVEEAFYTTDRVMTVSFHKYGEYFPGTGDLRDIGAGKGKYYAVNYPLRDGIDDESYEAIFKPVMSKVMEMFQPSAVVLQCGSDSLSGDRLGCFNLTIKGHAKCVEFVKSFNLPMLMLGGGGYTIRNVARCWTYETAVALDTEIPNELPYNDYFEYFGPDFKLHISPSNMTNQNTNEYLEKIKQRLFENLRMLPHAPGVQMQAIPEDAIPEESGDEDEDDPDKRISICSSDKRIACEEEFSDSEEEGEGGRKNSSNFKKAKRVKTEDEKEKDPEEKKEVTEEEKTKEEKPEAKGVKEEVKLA
quantity measured: IC50 (µM)

1. CC(C)(C)c1ccc(-c2ccc(N)c(NC(=O)CCCCCCNc3c4c(nc5ccccc35)CCCC4)c2)cc1 [Example 18]
2. Nc1ccc(-c2ccc3ccccc3c2)cc1NC(=O)CCCCCCNc1c2c(nc3ccccc13)CCCC2 [Example 19]
3. Nc1ccc(-c2ccccc2)cc1NC(=O)CCCCCCNc1c2c(nc3ccccc13)CCCC2 [Example 15]
4. Nc1ccc(-c2cccnc2)cc1NC(=O)CCCCCCNc1c2c(nc3ccccc13)CCCC2 [Example 21]
Q. Method: rank(items above, key=IC50, ascending=True) Please reply with the labels ordered as requested. Many thanks.
A. 3, 4, 1, 2
(3: 1.48 µM, 4: 8.55 µM, 1: 48.1 µM, 2: 139 µM)
